- Test system: UACC-257 melanoma
- test method notes: NCI tumour cell line growth inhibition, 48 h
For each entry below, report its TGI value.

Example results:
CSc1cnn(CCC#N)c(=O)n1 : > 100 µM
CC(OC(=O)NCn1cc(-c2ccccc2)nn1)c1ccccc1 (stereo not drawn) : > 100 µM

Could you now look at the following compound, please?
Given the entry COC(=O)C(CCCC1(c2ccccc2)OCCO1)C(C)=O (stereo not drawn) , report its measured TGI.
> 100 µM

###

For each entry below, report its TGI value.
- Test system: SW-620 colon
- test method notes: NCI tumour cell line growth inhibition, 48 h

Example results:
CCc1n[nH]c(=O)n1/N=C/c1ccccc1Cl : > 100 µM
COC(=O)C(O)P(=O)(OC)OC (stereo not drawn) : > 100 µM

Could you now look at the following compound, please?
Given the entry CC1=C2c3c(C)ccc4ccc(C)c(c34)C2(O)C(C)C1=O (stereo not drawn) , report its measured TGI.
> 100 µM

###

- Tested on: IGROV1 ovarian
- test method notes: NCI tumour cell line growth inhibition, 48 h
observable: TGI

CC(N)C(C)Cc1ccccc1 (stereo not given) : > 100 µM
N/N=C1\C(=O)N(C2CCCCC2)C(=O)C1C(=O)NC1CCCCC1 (stereo not given) : > 100 µM
N#Cc1c(-c2ccco2)cc(-c2ccc(NCc3nc4ccccc4[nH]3)cc2)nc1N : > 100 µM

Give one value of TGI per listed compound.
1. CC(C)CCOc1ccc(-c2n[nH]c(C(F)(F)F)c2-c2cncc(C#N)c2)c(O)c1
2. CCCCn1c(C)c(C(=O)OCC)s/c1=N/Nc1nc2ccccc2nc1-c1ccccc1

> 100 µM
> 100 µM

###

For each entry below, report its GI50 value.
- System: SF-268 CNS
- test method notes: NCI tumour cell line growth inhibition, 48 h

Give one value of GI50 per listed compound.
1. CN1CCCNc2c(c(=O)c2=O)NCCCN(C)CCCNc2c(c(=O)c2=O)NCCCN(C)CCCNc2c(c(=O)c2=O)NCCCN(C)CCCNc2c(c(=O)c2=O)NCCCN(C)CCCNc2c(c(=O)c2=O)NCCCN(C)CCCNc2c(c(=O)c2=O)NCCCN(C)CCCNc2c(c(=O)c2=O)NCCC1
2. CCOC(=O)c1sc2nc3sc(N=Nc4ccc(Cl)cc4)c(O)n3c(=S)c2c1C
3. O=C(OCc1ccccc1)N1CCN(/[N+]([O-])=N/Oc2ccc([N+](=O)[O-])cc2[N+](=O)[O-])CC1
4. CC(C)CCOc1ccc(-c2n[nH]c(C(F)(F)F)c2-c2cncc(C#N)c2)c(O)c1

1. 1.82 µM
2. 19.7 µM
3. 6.28 µM
4. 4.18 µM

###

- Tested on: 786-0 renal
- test method notes: NCI tumour cell line growth inhibition, 48 h
For each entry below, report its TGI value.

Example results:
CCn1cc(/C=C/C(C)c2cn(CC)c(=O)[nH]c2=O)c(=O)[nH]c1=O (stereo not drawn) : > 100 µM
NS(=O)(=O)c1cc2c(cc1Cl)NC(Cc1ccccc1)NS2(=O)=O (stereo not drawn) : > 100 µM

Could you now look at the following compound, please?
Given the entry CCOC(=O)c1sc2nc3sc(N=Nc4ccc(Cl)cc4)c(O)n3c(=S)c2c1C , report its measured TGI.
> 100 µM
